# experimentDescription: pH solubility studies on Milrinone (saturated solubility in different buffers)
# Format: physicochemical
# testParameters: aqueous buffer, thermodynamic from solid; pH 6.8 Phosphate Buffer

molecule | solubility at 24 h [µg/mL]
Cc1[nH]c(=O)c(C#N)cc1-c1ccncc1 [milrinone] | 742
